- Tested on: OVCAR-4 ovarian
- TEST_METHOD_NOTES: NCI tumour cell line growth inhibition, 48 h

COMPOUND	U	TGI
O=C1/C(=C/Cc2ccco2)N=C(c2ccccc2)N1c1nc2c(Cl)cc(Cl)cc2s1	µM	75.6
CC(=O)O[C@H]1CC[C@]2(C=O)[C@H]3CC[C@]4(C)[C@@H](C5=CC(=O)OC5)CC[C@]4(O)[C@@H]3CC[C@]2(O)C1	µM	0.35
O=C(c1nc2ccccc2[nH]1)C1C(c2cccc([N+](=O)[O-])c2)C2CC3CCCCC3N2[C@@]12C(=O)Nc1cc(Cl)ccc12 (some centres undefined)	µM	8.87
O=C(CSCC(=O)N/N=C\c1cccc(Br)c1)N/N=C\c1cccc(Br)c1	µM	69.9

* * *

- Tested on: NCI-H226 lung
- TEST_METHOD_NOTES: NCI tumour cell line growth inhibition, 48 h
*1 amine or outer side, *2 acyl side, *3 side chain or, on linkers, in order; H or OH if unused. Where a SMILES comes first, the peptide text is derived from it. [ ]: non-standard residue; d: D form. The star is where a group is joined. X12 = NCCCCC(N[*:1])C(=O)CN1CCCC1C(=O)[*:2]; Pentadecanoyl = CCCCCCCCCCCCCCC(=O)*

COMPOUND	TGI
O=C(N(C1=CCCC1)N(c1ccccc1)c1ccccc1)C(F)(F)F	42.3 µM
CC1CCCc2c(CC3CC(=O)NC(=O)C3)nc(N)nc21 (configuration not stated)	> 100 µM
CN1CCN(Cc2ccc(NC(=O)c3cncc(C#Cc4cncc5[nH]ncc45)c3)cc2C(F)(F)F)CC1	2.86 µM
N#CC(N)(C(=O)C(=O)NCCCNC(=O)C(=O)C(N)(C#N)c1ccc(Cl)cc1)c1ccc(Cl)cc1 (configuration not stated)	> 100 µM
O=C(CSCC(=O)N/N=C\c1cccc(Br)c1)N/N=C\c1cccc(Br)c1	36.5 µM
CC1CC/C(=C\c2ccc(F)cc2)C2=C1C(c1ccc(F)cc1)NC(=S)N2 (configuration not stated)	> 100 µM
CC(=O)OC1COC(n2c(N)c(C#N)c(-c3ccccc3)c(C#N)c2=S)C(OC(C)=O)C1OC(C)=O (configuration not stated)	> 100 µM
COC(=O)C1=C(C)NC(C)=C(C(=O)OC)C1c1ccccc1[N+](=O)[O-]	> 100 µM
COC1OC(=O)C(OC)C(OC)C1OC (configuration not stated)	> 100 µM
Cc1cccc(Cc2cnc(NC(=O)/C=C/c3ccco3)s2)c1	> 23.1 µM
COc1ccc(C(=O)C(CN(C)C)c2ccccc2)cc1 (configuration not stated)	8.59 µM
O=C(O)CNCc1c2ccccc2nc2ccccc12	> 100 µM
Cc1cnc2[nH]c(-c3sccc3C)cc(=O)c2c1	39.3 µM
CCOC(=O)CCN1C(=O)c2c(NC(=O)C(=O)O)cccc2S1(=O)=O	> 100 µM
CCCCCCCCCCCCCCC(=O)NC(CCCCN)C(=O)CN1CCCC1C(=O)NCC(=O)NC(Cc1ccccc1)C(=O)N1CCCC1C(=O)NC(CO)C(=O)NC(Cc1ccc(O)cc1)C(=O)NC(CCCCN)C(=O)NC(CC(C)C)C(=O)NC(CCCN=C(N)N)C(=O)N1CCCC1C(=O)NCC(N)=O (configuration not stated) (Pentadecanoyl-[X12]GFPSYKLRPG-NH2; configuration not given here)	38.6 µM
CC1[C@@H]2C[C@@H]3O[C@@]34[C@H]3CCC5Cc6nc7c(nc6C[C@@]5(C)C3(O)CC(=O)[C@@]24CO[C@]12OC(C)(C)CC2O)CC1CC[C@@H]2C3=C[C@H]4O[C@@]5(O[C@@](C)(CO)C[C@@H]5O)C(C)[C@@]4(O)[C@]3(C)[C@@H](O)CC2[C@]1(C)C7 (some centres not stated)	> 3.52 µM
NC(=S)c1cn(C2OC(CO)C(O)C2O)c2ncnc(N)c12 (configuration not stated)	> 21.1 µM

* * *

- System: SNB-75 CNS
- TEST_METHOD_NOTES: NCI tumour cell line growth inhibition, 48 h
*1 amine or outer side, *2 acyl side, *3 side chain or, on linkers, in order; H or OH if unused. Where a SMILES comes first, the peptide text is derived from it. [ ]: non-standard residue; d: D form. The star is where a group is joined. X12 = NCCCCC(N[*:1])C(=O)CN1CCCC1C(=O)[*:2]; Pentadecanoyl = CCCCCCCCCCCCCCC(=O)*
ATTRIBUTE_MEASURED: TGI

COMPOUND	ATTRIBUTE_MEASURED	RESULT
CC(=O)OCC12C(OC(C)=O)C[C@@H](C)C3(CC(c4ccoc4)OC3=O)C1CCC(OC(C)=O)C21CO1 (some centres not stated)	TGI	> 100 µM
CC1CC(=O)CC[C@@H]1OCc1ccccc1 (some centres not stated)	TGI	> 100 µM
CCCCCCCCCCCCCCC(=O)NC(CCCCN)C(=O)CN1CCCC1C(=O)NCC(=O)NC(Cc1ccccc1)C(=O)N1CCCC1C(=O)NC(CO)C(=O)NC(Cc1ccc(O)cc1)C(=O)NC(CCCCN)C(=O)NC(CC(C)C)C(=O)NC(CCCN=C(N)N)C(=O)N1CCCC1C(=O)NCC(N)=O (configuration not stated) (Pentadecanoyl-[X12]GFPSYKLRPG-NH2; configuration not given here)	TGI	58.5 µM
Cc1ccc(S(=O)(=O)N/N=C/CN2C(=O)c3ccccc3C2=O)cc1	TGI	> 100 µM
C[C@@H]1CC(=O)[C@@]2(C)[C@](O)(CCC3O[C@]32C)[C@@]12CC(c1ccoc1)OC2=O (some centres not stated)	TGI	> 100 µM
C=CCN1C(=O)C/C(=C2/CCC(=O)N2CC=C)C1=O	TGI	> 100 µM
O=C(N(C1=CCCC1)N(c1ccccc1)c1ccccc1)C(F)(F)F	TGI	> 100 µM
CCC[CH2][Sn]1([CH2]CCC)[O]N=Cc2ccccc2[O]1	TGI	1.54 µM
O=[N+]([O-])C1(CO)COC2(OC1)c1ccccc1-c1ccccc12	TGI	> 100 µM
Fc1ccc(-c2ncn(C3CCNCC3)c2-c2ccnc(Oc3ccc(Oc4ccccc4)cc3)n2)cc1	TGI	6.67 µM
CCn1c(-c2nonc2N)nc2c(C#CC(C)(C)O)ncc(OCC3CCNCC3)c21	TGI	> 23.3 µM
CC1=CCC(=O)[C@]2(C)C(CC(=O)O)[C@]3(C)C4=C(C)C(c5ccoc5)C[C@@H]4O[C@@H]3[C@H](O)[C@@H]12 (some centres not stated)	TGI	> 100 µM
Clc1ccc2c(NCCNc3nc(Cl)nc4ccccc34)ccnc2c1	TGI	3.16 µM
N#CC(NNC(=O)c1c(Cl)c(Cl)c(Cl)c(Cl)c1-c1nc2ccc(C(=O)c3ccccc3)cc2[nH]1)c1cccc(Oc2ccccc2)c1 (configuration not stated)	TGI	72.8 µM
COc1ccc(C2=C(N)c3cc(OC)ccc3C2=O)cc1	TGI	> 100 µM
Nc1ccc(Sc2ccc3c4c2cccc4c(=O)n2c4ccccc4nc32)cc1	TGI	48.1 µM
CN(C)CC1CCCCCCCCCCC1=O (configuration not stated)	TGI	> 100 µM

* * *

- Tested on: SK-MEL-2 melanoma
- TEST_METHOD_NOTES: NCI tumour cell line growth inhibition, 48 h

COMPOUND	ASSAY_SYSTEM	TGI
CC(=O)N1C(=O)/C(=C\C(=O)c2ccc(Cl)cc2)c2ccccc21	SK-MEL-2 melanoma	38.9 µM
CC1(C)CC(=O)C=C(NC(=O)c2ccccc2)C1	SK-MEL-2 melanoma	> 100 µM
O=C1/C(=C/Cc2ccco2)N=C(c2ccccc2)N1c1nc2c(Cl)cc(Cl)cc2s1	SK-MEL-2 melanoma	63.5 µM
COc1ccccc1NC(=O)NS(=O)(=O)c1ccccc1	SK-MEL-2 melanoma	> 100 µM
CC1CN=C(N(C(=O)Nc2ccccc2)C2CCCCC2)S1 (centres undefined)	SK-MEL-2 melanoma	29.5 µM
CC(C)(CO)Nc1c(O)c2c(c(O)c1Cl)C(=O)C=CC2=O	SK-MEL-2 melanoma	4.8 µM
COc1cc2cc(C(=O)N3C[C@H](CCl)c4c3cc(O)c3ccccc43)[nH]c2c(OC)c1OC	SK-MEL-2 melanoma	0.461 µM
CC(=O)c1c2c(cc3c1CCC3)CCC2	SK-MEL-2 melanoma	> 100 µM
CN1CCN(C2CC(=O)c3c(Cl)sc(Cl)c32)CC1 (centres undefined)	SK-MEL-2 melanoma	> 59.9 µM
CN1C(=O)[C@](C)(Cc2ccc(F)cc2)N(C(=O)OC(C)(C)C)[C@@H]1C(C)(C)C	SK-MEL-2 melanoma	> 100 µM
CCCCOc1nc2ccccc2cc1C1CNC(=O)c2ccccc2N1 (centres undefined)	SK-MEL-2 melanoma	29.6 µM
Cc1cc(=O)oc2c(CN(CCCl)CCCl)c(O)ccc12	SK-MEL-2 melanoma	> 100 µM
COc1ccc(C(=O)C(CN(C)C)c2ccccc2)cc1 (centres undefined)	SK-MEL-2 melanoma	7.97 µM
CC(=O)c1nc(C#N)c(N)o1	SK-MEL-2 melanoma	> 100 µM
CCOC(=O)c1sc2[n+](c1C)C(=O)/C(=C/c1ccccc1Cl)S2	SK-MEL-2 melanoma	> 74.7 µM
Cc1cc(C)c(N)c(CO)c1	SK-MEL-2 melanoma	> 100 µM
COc1ccc(C2CCc3c(cnc4nc(N)nc(N)c34)C2)cc1 (centres undefined)	SK-MEL-2 melanoma	> 100 µM
Cc1cc(S(=O)(=O)Nc2n[nH]c(N)n2)c(S)cc1Cl	SK-MEL-2 melanoma	> 10 µM
N#CC(NNC(=O)c1c(Cl)c(Cl)c(Cl)c(Cl)c1-c1nc2ccc(C(=O)c3ccccc3)cc2[nH]1)c1cccc(Oc2ccccc2)c1 (centres undefined)	SK-MEL-2 melanoma	47.2 µM
N#Cc1nc(C(=O)c2ccccc2)oc1N	SK-MEL-2 melanoma	> 100 µM
O=C1CSC(c2cc3cc(Br)ccc3nc2Cl)N1c1ccc(F)c(Cl)c1 (centres undefined)	SK-MEL-2 melanoma	> 50 µM
Cc1ccc(/C=C2\CN(C(=O)CCN3CCC(=NO)CC3)C/C(=C\c3ccc(C)cc3)C2=O)cc1	SK-MEL-2 melanoma	7.02 µM
O=C(/C=C/c1ccc(OCCCOc2ccc(/C=C/C(=O)c3ccc(Cl)cc3)cc2)cc1)c1ccc(Cl)cc1	SK-MEL-2 melanoma	> 100 µM
CCN(CC)c1ccc(/C=C2/NC(=O)NC2=O)cc1	SK-MEL-2 melanoma	> 31.4 µM
CC(C)C(NCc1c2ccccc2nc2ccccc12)C(=O)O (centres undefined)	SK-MEL-2 melanoma	> 100 µM
Oc1cccc(-c2cn3cc(Cl)ccc3n2)c1	SK-MEL-2 melanoma	> 100 µM
O=c1cc(-c2ccccc2)[nH]c2c(F)ccc(F)c12	SK-MEL-2 melanoma	77.1 µM
COc1ccc(Cn2nc(OCc3ccccc3)c3cc([N+](=O)[O-])ccc32)cc1	SK-MEL-2 melanoma	> 100 µM
C/C(=N\Nc1nc2ccccc2n1C)c1ccncn1	SK-MEL-2 melanoma	> 100 µM
Clc1cc(-c2csc(Cl)c2)cs1	SK-MEL-2 melanoma	> 100 µM
CCCCCC(=O)OCC1(CO)C/C(=C/CC(C(C)C)C(C)C)C(=O)O1 (centres undefined)	SK-MEL-2 melanoma	> 75 µM
C[C@@H]1CC(=O)[C@@]2(C)[C@](O)(CCC3O[C@]32C)[C@@]12CC(c1ccoc1)OC2=O (some centres undefined)	SK-MEL-2 melanoma	> 100 µM
CCC1C(=O)OCc2c1cc1n(c2=O)Cc2ccccc2-1 (centres undefined)	SK-MEL-2 melanoma	> 100 µM
CCc1cc(Nc2nccc(-c3c(-c4ccc(OC)c(C(=O)Nc5c(F)cccc5F)c4)nc4ccccn34)n2)c(OC)cc1N1CCC(N2CCN(S(C)(=O)=O)CC2)CC1	SK-MEL-2 melanoma	> 88.4 µM
O=C(O)CNCc1c2ccccc2nc2ccccc12	SK-MEL-2 melanoma	> 100 µM
Cc1cccc(Cc2cnc(NC(=O)/C=C/c3ccco3)s2)c1	SK-MEL-2 melanoma	> 100 µM
c1ccc(C2C3=C(CCCC3)Nc3nnnn32)cc1 (centres undefined)	SK-MEL-2 melanoma	> 100 µM
Cc1nc2cccc(F)c2c(=O)n1-c1nnc(C2CC2)s1	SK-MEL-2 melanoma	> 10 µM
N#CCCCCCn1c2ccccc2c2c3c(c4c5ccccc5[nH]c4c21)C(=O)N(O)C3=O	SK-MEL-2 melanoma	4.67 µM
O=C1c2ccccc2-c2c1c1ccccc1c(=O)n2CCCNCCO	SK-MEL-2 melanoma	6.15 µM
Cc1cnc2cc(Cl)ccc2c1SCC(=O)O	SK-MEL-2 melanoma	> 100 µM
COc1ccc2nc(NC(=O)C(=O)C(C#N)c3ccc(CC#N)cc3)sc2c1 (centres undefined)	SK-MEL-2 melanoma	> 100 µM
O=C(OCC(OC(=O)c1ccccc1)C1CC(C(O)C2CCCCC2)C(=O)O1)c1ccccc1 (centres undefined)	SK-MEL-2 melanoma	> 100 µM
Fc1sc2c(c1F)C1CCC2C1 (centres undefined)	SK-MEL-2 melanoma	> 100 µM
